Give IC50 for every item shown.
experimentalSystem: T1, recombinant human IL-6R-extracellular domain (ECD) (human, UniProt P08887 20-365)
T1 construct: extracellular domain; also called IL-6R-ECD
T1 sequence (looked up): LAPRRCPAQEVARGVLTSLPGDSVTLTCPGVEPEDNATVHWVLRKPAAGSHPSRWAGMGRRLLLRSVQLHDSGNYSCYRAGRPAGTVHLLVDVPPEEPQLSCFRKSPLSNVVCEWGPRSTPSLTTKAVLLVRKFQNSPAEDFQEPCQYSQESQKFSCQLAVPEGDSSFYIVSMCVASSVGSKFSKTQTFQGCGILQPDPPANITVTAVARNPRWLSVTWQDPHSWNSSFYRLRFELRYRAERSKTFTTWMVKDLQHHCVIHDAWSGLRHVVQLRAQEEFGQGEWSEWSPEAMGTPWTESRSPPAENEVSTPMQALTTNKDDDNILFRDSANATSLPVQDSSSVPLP
assayName: receptor-ligand ELISA, blocking of IL-6 binding to IL-6R
Answer format reminder: number followed by unit.

Input: Tell me the measured IC50 of clone 36 rabbit anti-IL-6R antibody (antibody, V domains shown) VH: QSVEESGGRLVTPGTPLTLTCTVSGFSLSSYYMSWVRQAPGKGLEWIGITTTSTNTFYASWAKGRFTISKTSATVDLKITSPTIEDTATYFCARYGGNSAYYAFSLWGQGTLVTVSS VL: QVLTQTASSVSAAVGGTVTISCQSSQSVYNNNYLAWFQQKPGQPPKLLIYGASNLASGVPSRFKGSGSGTQFTLTISDLECDNAATYYCQGYYNGVIFVFGGGTEVVVK , please.
Output: 0.235 µg/mL

Input: // next record humanized clone #36 anti-IL-6R antibody (antibody, human IgG1, kappa, V domains shown, Humanized VH cloned into human IgG1 CH vector, humanized VK into human CK vector; also called Humanized 36; humanized 36) VH: EVQLVESGGGLVQPGGSLRLSCAVSGFSLSSYYMSWVRQAPGKGLEWIGITTTSTNTFYASWAKGRFTISKDSSKNTVYLQMNSPRAEDTAVYFCARYGGNSAYYAFSLWGQGTLVTVSS VL: DIQMTQSPSSLSASVGDRVTISCQSSQSVYNNNYLAWFQQKPGKPPKLLIYGASNLASGVPSRFSGSGSGTQFTLTISSLQPEDVATYYCQGYYNGVIFVFGGGTKVEIKR
Output: 0.39 µg/mL

Input: // next record humanized clone #51 anti-IL-6R antibody (antibody, human IgG1, kappa, V domains shown, Humanized VH cloned into human IgG1 CH vector, humanized VK into human CK vector; also called Humanized 51; humanized 51) VH: EVQLVESGGGLVQPGGSLRLSCAASGFDISSYSLQWVRQSPGKGLEYIGFIRPDGSAHYATWAKGRFTISKDSSKNTVYLQMNSLRAEDTAVYFCARDDISSDYFPNLWGPGTLVTVSS VL: DIQMTQSPSTLSASVGDRVTISCQASESVYNKNNLAWYQQKPGKPPKLLIYDASDLASGVPSRFSGSGSGTQFTLTISSLQPDDFATYYCAGGGSGNVYDFGGGTKVEIKR
Output: 0.26 µg/mL

Input: // next record clone 51 rabbit anti-IL-6R antibody (antibody, V domains shown) VH: QSVEESGGRLVTPGTPLTLTCTASGFDISSYSLQWVRQSPGKGLEYIGFIRPDGSAHYATWAKGRFTISKTSSTTVDLKMTSLTTEDTATYFCARDDISSDYFPNLWGPGTLVTVSS VL: QVLTQTPSPVSAAVGGTVTISCQASESVYNKNNLAWYQQKPGQPPKLLIYDASDLASGVSSRFKGSGSGTQFTLTISDLECADAATYYCAGGGSGNVYDFGGGTEVVVK
Output: 0.288 µg/mL
